Overview of reported Iodine color number, start across a group of compounds:
Test: Iodine color number according to DIN 6162:2014-09
Format: physicochemical
Settings: Polymer P8 with stabilizer; start
Quantity: Iodine color number, start

> print(dat)
                                   compound                    quantity  value.observed
1                                Cn1sccc1=O  Iodine color number, start             3.5
2  CCCCCCCCCCCCCCCC[N+](C)(C)Cc1ccccc1.[Cl-] [Polymer 16-BAC, cetylalkonium chloride]  Iodine color number, start             3.2
3                 CCCCCCCCn1sc(Cl)c(Cl)c1=O  Iodine color number, start             3.4

---

Test: Analysis of active substance: preservative concentration before and after storage in VI-containing polymer solution
Assay type: physicochemical
Conditions: in Polymer P8; before storage
Friendly reminder: active-substance concentration, 0 d, RT below 300 ppm is Criterion met, at or above is Criterion not met.

> print(dat)
                                   compound           category
1                            Cn1sc(Cl)cc1=O      Criterion met
2  CCCCCCCCCCCCCCCC[N+](C)(C)Cc1ccccc1.[Cl-] [Polymer 16-BAC, cetylalkonium chloride]  Criterion not met
3  CCCCNC(=O)OCC#CI [Iodopropynyl butyl carbamate, iodopropynyl butyl carbamate]      Criterion met
4                        O=c1[nH]sc2ccccc12      Criterion met
5                         CCCCCCCCn1sccc1=O      Criterion met
6                                Cn1sccc1=O      Criterion met
7  CCCCCCCCCC[N+](C)(C)CCCCCCCCCC.[Cl-] [DDAC, didecyldimethylammonium chloride]  Criterion not met

---

Assay: Analysis of active substance: preservative concentration before and after storage in VI-containing polymer solution
Format: physicochemical
Conditions: in Polymer P9; before storage
Quantity: active-substance concentration, 0 d, RT (ppm)

> print(dat)
                                   molecule                                 quantity  units.symbol  value.observed
1  CCCCCCCCCC[N+](C)(C)CCCCCCCCCC.[Cl-] [DDAC, didecyldimethylammonium chloride]  active-substance concentration, 0 d, RT           ppm             950
2                                Cn1sccc1=O  active-substance concentration, 0 d, RT           ppm             250
3  CCCCNC(=O)OCC#CI [Iodopropynyl butyl carbamate, iodopropynyl butyl carbamate]  active-substance concentration, 0 d, RT           ppm             250
4                         CCCCCCCCn1sccc1=O  active-substance concentration, 0 d, RT           ppm             250
5                 CCCCCCCCn1sc(Cl)c(Cl)c1=O  active-substance concentration, 0 d, RT           ppm             300
6                            Cn1sc(Cl)cc1=O  active-substance concentration, 0 d, RT           ppm             150
7  CCCCCCCCCCCCCCCC[N+](C)(C)Cc1ccccc1.[Cl-] [Polymer 16-BAC, cetylalkonium chloride]  active-substance concentration, 0 d, RT           ppm            1000
8                        O=c1[nH]sc2ccccc12  active-substance concentration, 0 d, RT           ppm             150
